Biological target: SHP2 protein (Homo sapiens)
Sequence (Q06124 1-593): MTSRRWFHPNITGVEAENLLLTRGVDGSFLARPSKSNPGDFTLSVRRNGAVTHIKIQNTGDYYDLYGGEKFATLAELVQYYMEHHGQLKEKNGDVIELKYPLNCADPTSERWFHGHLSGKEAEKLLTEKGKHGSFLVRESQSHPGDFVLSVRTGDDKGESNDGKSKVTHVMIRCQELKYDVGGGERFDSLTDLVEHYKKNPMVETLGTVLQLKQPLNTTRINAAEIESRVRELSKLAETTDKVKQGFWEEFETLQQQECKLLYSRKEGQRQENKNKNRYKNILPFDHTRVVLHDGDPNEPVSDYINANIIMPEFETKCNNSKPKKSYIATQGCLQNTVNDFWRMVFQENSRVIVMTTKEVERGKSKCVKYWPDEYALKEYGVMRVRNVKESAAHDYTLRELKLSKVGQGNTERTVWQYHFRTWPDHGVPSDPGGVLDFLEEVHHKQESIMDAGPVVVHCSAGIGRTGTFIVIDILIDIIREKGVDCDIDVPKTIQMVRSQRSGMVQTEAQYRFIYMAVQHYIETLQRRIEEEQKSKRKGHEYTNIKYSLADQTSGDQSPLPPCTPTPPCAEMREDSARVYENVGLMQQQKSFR
Assay: Measurement of SHP2 protein degradation in MV-4-11 cells (western blotting)
Format: cell-based
Set-up: endogenous in cells; host or cells: MV-4-11
Details: MV-4-11 cells, 100 nM, 24 hours
Listing: SHP2 degradation (%) 100 nM of selected molecules
Could you give me the number in %? Just the number is fine.

Worked set:
Cc1ncsc1-c1ccc(CNC(=O)[C@@H]2C[C@@H](O)CN2C(=O)[C@@H](NC(=O)C2(F)CC2)C(C)(C)C)c(OCCN2CCN(C(=O)CC(=O)Nc3cccc(Sc4ncc(N5CCC(C)(N)CC5)nc4N)c3Cl)CC2)c1: 98.3
Cc1ncsc1-c1ccc(CNC(=O)[C@@H]2C[C@@H](O)CN2C(=O)[C@@H](NC(=O)C2(F)CC2)C(C)(C)C)c(OCCCN2CCC(CC(=O)Nc3cccc(Sc4ncc(N5CCC(C)(CN)CC5)nc4N)c3Cl)CC2)c1: 90.9
Cc1ncsc1-c1ccc(CNC(=O)[C@@H]2C[C@@H](O)CN2C(=O)[C@@H](NC(=O)C2(F)CC2)C(C)(C)C)c(OCCN2CCN(c3ccc(C(=O)Nc4cccc(Sc5cnc(N6CCC(C)(CN)CC6)cn5)c4Cl)cn3)CC2)c1: 96.2
Cc1ncsc1-c1ccc(CNC(=O)[C@@H]2C[C@@H](O)CN2C(=O)[C@@H](NC(=O)C2(F)CC2)C(C)(C)C)c(OCCCN2CCC(CC(=O)Nc3cccc(Sc4cnc(N5CC[C@H](CN)C5)cn4)c3Cl)CC2)c1: 19.2

Below: the item to evaluate.
Any idea what SHP2 degradation (%) 100 nM was measured for Cc1ncsc1-c1ccc(CNC(=O)[C@@H]2C[C@@H](O)CN2C(=O)[C@@H](NC(=O)C2(F)CC2)C(C)(C)C)c(OCCN2CCN(CC(=O)Nc3cccc(Sc4cnc(N5CCC(C)(CN)CC5)cn4)c3Cl)C(=O)C2)c1 ? 99.5

The values you see were collected from patent US20250230154A1.
